target: G protein-activated inward rectifier potassium channel 2 (Homo sapiens); assay: activators of human GIRK2 potassium channels (AID 1259325); settings: HEK293-GIRK2 thallium flux, Thallos fluorescence, MPD
About 30 (0.05%) of roughly 63,000 compounds were called active. The list is a sample of the results.

{"COMPOUND": "C#CCn1c(COc2ccccc2OC)nc2ccccc21", "outcome": "inactive"}
{"COMPOUND": "CCN(CC)c1ccc(-c2noc(CN3CCN(c4cccc(C)c4)CC3)n2)cn1", "outcome": "inactive"}
{"COMPOUND": "CCOC(=O)c1cnn2ccc(NC(=O)c3cnn(-c4ccccc4)c3C)cc12", "outcome": "inactive"}
{"COMPOUND": "O=C(NCc1ccc2c(c1)OCO2)C1CCN(c2ncnc3c2sc2ncccc23)CC1", "outcome": "inactive"}
{"COMPOUND": "COc1ccc2c(=O)c3c(oc2c1)C(=O)N(CCCN(C)C)C3c1ccccc1 (stereo not given)", "outcome": "inactive"}
{"COMPOUND": "Cn1c(=O)n(CCc2ccccc2)c(=O)c2c(N3CCN(C(=O)c4ccco4)CC3)ccnc21", "outcome": "inactive"}
{"COMPOUND": "O=C1/C(=C/c2cc(Br)cc3c2OCOC3)Oc2cc(OC(=O)N3CCOCC3)ccc21", "outcome": "inactive"}
{"COMPOUND": "Cc1ccc(=O)n(CC(=O)N2CCC(Cc3ccccc3)CC2)n1", "outcome": "inactive"}
{"COMPOUND": "CCOCCn1c(-n2nc(C)cc2C)nc2c1c(=O)n(Cc1ccccc1F)c(=O)n2C", "outcome": "inactive"}
{"COMPOUND": "COc1ccc(NCCN2N=C(C)C(C)n3c2nc2c3c(=O)n(C)c(=O)n2C)cc1 (stereo not given)", "outcome": "inactive"}
